assayed-system: Epidermal growth factor receptor (Homo sapiens, UniProt P00533)
Sequence (P00533 whole entry): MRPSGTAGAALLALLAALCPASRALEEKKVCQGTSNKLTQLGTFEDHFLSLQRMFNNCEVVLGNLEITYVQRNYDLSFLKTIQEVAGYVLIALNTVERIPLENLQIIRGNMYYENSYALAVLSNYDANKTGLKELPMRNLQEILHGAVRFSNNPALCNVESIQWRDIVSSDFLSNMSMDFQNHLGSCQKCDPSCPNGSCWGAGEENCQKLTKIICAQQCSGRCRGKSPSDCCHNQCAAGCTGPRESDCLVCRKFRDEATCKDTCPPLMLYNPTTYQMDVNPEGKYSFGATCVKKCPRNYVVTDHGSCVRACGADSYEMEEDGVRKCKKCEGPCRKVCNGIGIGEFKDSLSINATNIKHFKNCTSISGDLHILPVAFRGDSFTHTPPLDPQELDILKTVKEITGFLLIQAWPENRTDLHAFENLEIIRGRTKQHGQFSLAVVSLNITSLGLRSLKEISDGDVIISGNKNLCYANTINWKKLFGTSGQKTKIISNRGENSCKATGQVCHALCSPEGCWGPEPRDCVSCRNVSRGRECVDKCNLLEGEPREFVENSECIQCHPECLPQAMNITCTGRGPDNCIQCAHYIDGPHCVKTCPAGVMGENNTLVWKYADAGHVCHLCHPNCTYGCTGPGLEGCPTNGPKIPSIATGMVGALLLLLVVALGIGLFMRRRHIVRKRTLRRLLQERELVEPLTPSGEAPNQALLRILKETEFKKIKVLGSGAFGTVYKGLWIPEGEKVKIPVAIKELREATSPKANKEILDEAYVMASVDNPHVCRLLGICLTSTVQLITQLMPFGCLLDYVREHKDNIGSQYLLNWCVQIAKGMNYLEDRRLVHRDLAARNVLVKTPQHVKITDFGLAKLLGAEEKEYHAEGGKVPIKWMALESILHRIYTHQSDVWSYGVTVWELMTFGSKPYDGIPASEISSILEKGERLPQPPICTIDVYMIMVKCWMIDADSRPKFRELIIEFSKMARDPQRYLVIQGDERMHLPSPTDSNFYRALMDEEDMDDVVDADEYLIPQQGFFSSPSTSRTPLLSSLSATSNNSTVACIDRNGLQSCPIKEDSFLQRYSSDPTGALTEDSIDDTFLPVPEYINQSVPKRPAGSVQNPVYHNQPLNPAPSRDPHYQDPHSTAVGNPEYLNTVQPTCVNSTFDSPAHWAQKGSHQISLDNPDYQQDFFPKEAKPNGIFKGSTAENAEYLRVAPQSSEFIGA
recorded-metric: IC50 (nM)

> print(dat)
                                    compound  result.comparator  test.value
 1   Fc1ccc(Nc2ncnc3c2NCc2cc(Cl)ccc2O3)cc1Cl                  =        1000
 2  Fc1ccc2c(c1)CNc1c(Nc3ccc(F)c(Cl)c3)ncnc1O2                  =        1000
 3  COc1cc2c(cc1OC)Oc1ncnc(Nc3ccc(F)c(Cl)c3)c1NC2                  =        1200
 4    COc1cccc2c1CNc1c(Nc3cccc(Br)c3)ncnc1O2                  >       10000
 5       Fc1ccc(Nc2ncnc3c2NCc2ccccc2O3)cc1Cl                  =        1100
 6      COc1ccc2c(c1)CNc1c(Nc3ccccc3)ncnc1O2                  =        7500
 7  COc1ccc2c(c1)CNc1c(Nc3cccc(-c4ccccc4)c3)ncnc1O2                  >       10000
 8  COc1ccc2c(c1)CNc1c(Nc3ccc(F)c(Cl)c3)ncnc1O2                  =         900
 9  C=CC(=O)Nc1ccc2c(c1)CNc1c(Nc3ccc(F)c(Cl)c3)ncnc1O2                  =        4900
10   Fc1ccc(Nc2ncnc3c2NCc2cc(Br)ccc2O3)cc1Cl                  =        2000
11  COc1ccc2c(c1)Oc1ncnc(Nc3cccc(Br)c3)c1NC2                  =        3000
12  COc1ccc2c(c1)Oc1ncnc(Nc3ccc(F)c(Cl)c3)c1NC2                  =        1000
13  CS(=O)(=O)Nc1ccc2c(c1)CNc1c(Nc3ccc(F)c(Cl)c3)ncnc1O2                  >       10000
14  FC(F)(F)Oc1ccc2c(c1)CNc1c(Nc3cccc(Br)c3)ncnc1O2                  >       10000
15   Fc1ccc2c(c1)CNc1c(Nc3ccc(Cl)cc3)ncnc1O2                  >       10000
